assay: in vitro
experimentalSetup: CD-1, mouse, s9
assayReadout: CLint scaled (mL/min/kg)

CO[C@H]1/C=C/O[C@@]2(C)Oc3c(C)c(O)c4c(c3C2=O)C2=NC3(CCN(CC(C)C)CC3)NC2=C(NC(=O)/C(C)=C\C=C\[C@H](C)[C@H](O)[C@@H](C)[C@@H](O)[C@@H](C)[C@H](OC(C)=O)[C@@H]1C)C4=O [Rifabutin]	219

###

targetOrTestSystem: P-gp (MDR1) (Homo sapiens, UniProt P08183)
Sequence (P08183 whole entry): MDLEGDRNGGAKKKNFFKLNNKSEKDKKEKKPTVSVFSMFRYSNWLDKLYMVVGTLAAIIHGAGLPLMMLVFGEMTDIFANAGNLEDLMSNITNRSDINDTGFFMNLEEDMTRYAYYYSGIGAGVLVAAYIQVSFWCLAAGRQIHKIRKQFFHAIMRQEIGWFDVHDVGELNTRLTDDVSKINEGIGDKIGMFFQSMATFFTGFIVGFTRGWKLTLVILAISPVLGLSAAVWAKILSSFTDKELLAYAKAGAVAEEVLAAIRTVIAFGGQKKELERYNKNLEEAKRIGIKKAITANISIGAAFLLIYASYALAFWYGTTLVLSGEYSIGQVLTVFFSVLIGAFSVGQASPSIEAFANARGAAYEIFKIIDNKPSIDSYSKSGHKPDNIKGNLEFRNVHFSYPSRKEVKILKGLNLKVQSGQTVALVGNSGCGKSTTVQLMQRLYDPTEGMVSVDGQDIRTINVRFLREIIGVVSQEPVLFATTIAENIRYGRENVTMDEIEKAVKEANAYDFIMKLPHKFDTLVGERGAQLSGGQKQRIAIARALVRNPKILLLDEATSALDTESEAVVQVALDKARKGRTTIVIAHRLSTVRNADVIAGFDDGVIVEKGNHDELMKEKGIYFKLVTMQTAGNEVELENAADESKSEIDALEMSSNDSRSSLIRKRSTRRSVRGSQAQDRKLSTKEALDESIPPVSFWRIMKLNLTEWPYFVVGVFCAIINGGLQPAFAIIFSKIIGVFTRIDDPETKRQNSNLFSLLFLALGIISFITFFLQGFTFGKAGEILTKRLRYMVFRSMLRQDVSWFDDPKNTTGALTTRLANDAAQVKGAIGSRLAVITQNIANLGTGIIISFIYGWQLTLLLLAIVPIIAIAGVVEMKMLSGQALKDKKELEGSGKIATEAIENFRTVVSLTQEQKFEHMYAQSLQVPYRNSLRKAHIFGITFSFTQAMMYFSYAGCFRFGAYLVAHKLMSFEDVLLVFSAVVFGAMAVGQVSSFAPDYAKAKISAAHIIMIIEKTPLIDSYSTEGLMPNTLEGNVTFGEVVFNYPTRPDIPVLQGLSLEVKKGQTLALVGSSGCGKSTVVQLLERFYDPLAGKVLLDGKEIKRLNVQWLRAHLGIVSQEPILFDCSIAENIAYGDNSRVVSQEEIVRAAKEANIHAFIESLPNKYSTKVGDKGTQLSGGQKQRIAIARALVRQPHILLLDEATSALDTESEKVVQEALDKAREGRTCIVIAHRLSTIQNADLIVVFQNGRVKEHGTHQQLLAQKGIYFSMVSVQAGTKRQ
assay: in vitro
experimentalSetup: dog, MDCK-MDR1
assayReadout: recovery (%)

CO[C@H]1/C=C/O[C@@]2(C)Oc3c(C)c(O)c4c(O)c(c(/C=N/N5CCN(C)CC5)c(O)c4c3C2=O)NC(=O)/C(C)=C\C=C\[C@H](C)[C@H](O)[C@@H](C)[C@@H](O)[C@@H](C)[C@H](OC(C)=O)[C@@H]1C [Compound 1, rifampicin]	76.5
